I'd appreciate it if you could supply GI50 values for the items below.
Kindly provide the numeric value in µM only, without the unit symbol.

Data request: Identify measured GI50 obtained with HL-60(TB) (Leukemia) for COc1ccc2c(c1)c(C=C1C(=O)NC(=S)NC1=O)cn2C(=O)c1ccccc1Br .
Data returned: 3.24

Data request: Find GI50 for COc1ccc2c(c1)c(C=C1C(=O)NC(=S)NC1=O)cn2C(=O)c1cccc2ccccc12 on HL-60(TB) (Leukemia) and write it down.
Data returned: 3.47

Data request: Please indicate recorded GI50 of COc1ccc(C(=O)n2cc(C=C3C(=O)NC(=S)NC3=O)c3cc(OC)ccc32)cc1 measured with HL-60(TB) (Leukemia).
Data returned: 3.91

Data request: Give reported GI50 for O=C1NC(=S)NC(=O)C1=Cc1cn(C(=O)c2cccc3ccccc23)c2ccccc12 (HL-60(TB) (Leukemia))
Data returned: 3.36

* * *

System: U251 (CNS Cancer)
assay_notes: five dose-response growth inhibition/cytotoxicity, U251
Type: cell-based, human
condition_label: read-out: LC50 (the source's name)
Assignment: determine reported CC50 for the given molecules.
Reply numerically in µM, unit not repeated.

Data request: Report CC50, nothing else, for this molecule: O=C1NC(=S)NC(=O)C1=Cc1cn(C(=O)c2cccc3ccccc23)c2ccccc12 [Compound 3t]
Data returned: 50.7

Data request: // Input: COc1ccc2c(c1)c(C=C1C(=O)NC(=S)NC1=O)cn2C(=O)c1ccccc1Br [Compound 3s] . Output its CC50 only.
Data returned: 42.1
